target: truncated rat FAAH (rFAAH) (Rattus norvegicus, UniProt P97612); construct: The truncated rat FAAH (rFAAH) was expressed in E. coli and purified as described by Patricelli et al; made in house; host or cells: E. coli; assay: Rat FAAH inhibition enzyme assay (14C-oleamide hydrolysis, Dixon plot); type: biochemical; details: Table 2; read-out: FAAH Ki
pKi: −log10 of the molar value.
observedProperty: pKi

The following molecules have reported results that may help.
In [3]: df
Out[3]:
                                   molecule  value
0  O=C(CCCCCCc1ccccc1)c1ncc(C(F)(F)F)o1 [Compound 5a, reference compound]   9.52
1           N#Cc1coc(C(=O)CCCCCCc2ccccc2)n1   9.22
2     O=C(CCCCCCc1ccccc1)c1nc(-c2ccccn2)co1   8.72

a = O=C(CCCCCCc1ccccc1)c1nc(C(F)(F)F)co1
b = O=C(CCCCCCc1ccccc1)c1nc(-c2ccncc2)co1
c = O=C(O)c1coc(C(=O)CCCCCCc2ccccc2)n1
Data request: # rank_down: sort by pKi, max first Ranked list of labels, please, in the requested order.
Data returned: b, a, c

----------
tested on: membrane-associated hydrolase (KIAA1363); assay: Proteome-wide serine hydrolase selectivity screening, KIAA1363; assay type: biochemical; settings: value in parentheses; FAAH versus KIAA1363
observedProperty: KIAA1363 (selectivity)

In [3]: df
Out[3]:
                           smilesstring                              targetsystem  value
0  O=C(CCCCCCc1ccccc1)c1nc(C(F)(F)F)co1  membrane-associated hydrolase (KIAA1363)   (25)

----------
pIC50: −log10 of the molar value.
For FAAH (UniProt O08914), measured pIC50 is reported for the entries below.
observedProperty: pIC50

In [3]: df
Out[3]:
                             compound  observedproperty  value
0  O=C(O)c1coc(C(=O)CCCCCCc2ccccc2)n1             pIC50   6.30

A = O=C(CCCCCCc1ccccc1)c1ncc(C(F)(F)F)o1 [Compound 5a, reference compound]
B = O=C(CCCCCCc1ccccc1)c1nc(-c2ccccn2)co1
Data request: Sorting by pIC50 in descending order, would A or B appear first? Answer with the label corresponding to your selection.
Data returned: B

----------
Biological target: truncated rat FAAH (rFAAH) (Rattus norvegicus)
Construct: The truncated rat FAAH (rFAAH) was expressed in E. coli and purified as described by Patricelli et al; made in house; host or cells: E. coli
Sequence (P97612 30-579 limits assumed): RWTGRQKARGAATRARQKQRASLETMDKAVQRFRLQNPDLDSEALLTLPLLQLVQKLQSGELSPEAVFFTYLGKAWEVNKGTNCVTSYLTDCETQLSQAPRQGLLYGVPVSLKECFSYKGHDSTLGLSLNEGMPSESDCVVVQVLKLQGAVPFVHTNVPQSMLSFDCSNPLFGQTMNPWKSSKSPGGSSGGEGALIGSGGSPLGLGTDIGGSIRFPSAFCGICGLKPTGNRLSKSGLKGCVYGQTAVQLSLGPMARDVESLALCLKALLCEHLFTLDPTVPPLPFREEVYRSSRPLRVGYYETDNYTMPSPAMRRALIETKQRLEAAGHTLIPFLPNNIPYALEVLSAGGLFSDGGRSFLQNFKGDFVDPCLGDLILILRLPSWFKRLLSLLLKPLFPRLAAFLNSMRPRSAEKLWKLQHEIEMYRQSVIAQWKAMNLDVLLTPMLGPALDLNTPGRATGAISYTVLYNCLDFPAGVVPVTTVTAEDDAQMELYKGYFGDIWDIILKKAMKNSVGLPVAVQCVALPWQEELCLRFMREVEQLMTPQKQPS
Test: Rat FAAH inhibition enzyme assay (14C-oleamide hydrolysis, Dixon plot)
Type: biochemical
Details: Table 1; purified recombinant rFAAH, pH 9.0; read-out: Rat FAAH inhibition Ki
observedProperty: Ki (nM)

Recorded results for 3 compounds are shown here.
>>> df
                         smilesstring  unitinfo  value
0     N#Cc1coc(C(=O)CCCCCCc2ccccc2)n1        nM    0.5
1      COc1coc(C(=O)CCCCCCc2ccccc2)n1        nM    740
2  NC(=O)c1coc(C(=O)CCCCCCc2ccccc2)n1        nM    1.6

I = CNC(=O)c1coc(C(=O)CCCCCCc2ccccc2)n1
II = CN(C)C(=O)c1coc(C(=O)CCCCCCc2ccccc2)n1
Data request: Please indicate which has the smaller reported Ki: I , or II . Reply briefly: the label of your chosen item.
Data returned: I

I = O=C(CCCCCCc1ccccc1)c1nc(I)co1
II = Cc1coc(C(=O)CCCCCCc2ccccc2)n1
III = COC(=O)c1coc(C(=O)CCCCCCc2ccccc2)n1
IV = O=C(O)c1coc(C(=O)CCCCCCc2ccccc2)n1
Data request: Order by Ki, ascending. // format: requested-order list of labels
Data returned: III, I, IV, II
(III: 3.4 nM, I: 6.5 nM, IV: 53 nM, II: 520 nM)

a = O=C(CCCCCCc1ccccc1)c1nc(C(=O)C(F)(F)F)co1
b = O=C(CCCCCCc1ccccc1)c1nc(Br)co1
c = O=Cc1coc(C(=O)CCCCCCc2ccccc2)n1
d = O=C(CCCCCCc1ccccc1)c1nc(-c2cccnc2)co1
e = O=C(CCCCCCc1ccccc1)c1nc(-c2ccccn2)co1
Data request: # desc sort on Ki across 5 compounds Form field (ranking): labels in requested order.
Data returned: a, c, d, b, e
(a: 470 nM, c: 55 nM, d: 18 nM, b: 3 nM, e: 1.9 nM)

A = O=C(CCCCCCc1ccccc1)c1nc(Cl)co1
B = O=C(CCCCCCc1ccccc1)c1nc(-c2ccncc2)co1
C = CSc1coc(C(=O)CCCCCCc2ccccc2)n1
D = O=C(CCCCCCc1ccccc1)c1nc(-c2ccccc2)co1
Data request: List by increasing Ki. Your task in answering is to list the labels in the requested order.
Data returned: B, A, C, D
(B: 1.6 nM, A: 4 nM, C: 29 nM, D: 65 nM)

I = O=C(CCCCCCc1ccccc1)c1nc(C(F)(F)F)co1
II = CC(=O)c1coc(C(=O)CCCCCCc2ccccc2)n1
Data request: Between I and II , whose recorded Ki is greater? Choose, then provide that item's label.
Data returned: I

----------
Here's a batch of compounds along with measured pIC50 for membrane-associated hydrolase (KIAA1363).
pIC50: −log10 of the molar value.

Some compounds with known pIC50 results, for comparison:
                                   compound   value
0  N#Cc1coc(C(=O)CCCCCCc2ccccc2)n1 [Compound 4s]    4.52
1  O=C(CCCCCCc1ccccc1)c1ncc(-c2ccccn2)o1 [Compound 5c, reference compound]  < 4.00
2  O=C(CCCCCCc1ccccc1)c1ncc(C(F)(F)F)o1 [Compound 5a, reference compound]  < 4.00
3  N#Cc1cnc(C(=O)CCCCCCc2ccccc2)o1 [Compound 5b, reference compound]  < 4.00
4  O=C(O)c1coc(C(=O)CCCCCCc2ccccc2)n1 [Compound 4o]  < 4.00

Would you kindly look at the next entry?
Data request: # get_value(readout='pIC50', item= O=C(O)c1cnc(C(=O)CCCCCCc2ccccc2)o1 [Compound 5d, reference compound] )
Data returned: < 4.00

----------
target: truncated rat FAAH (rFAAH) (Rattus norvegicus, UniProt P97612); construct: The truncated rat FAAH (rFAAH) was expressed in E. coli and purified as described by Patricelli et al; made in house; host or cells: E. coli; experiment: Rat FAAH inhibition enzyme assay (14C-oleamide hydrolysis, Dixon plot); assay type: biochemical; details: Table 4; value ± error; read-out: Ki, inhibition results with calculated errors
pKi: −log10 of the molar value.
observedProperty: pKi

Some solved cases for reference:
In [3]: df
Out[3]:
                             smilesstring                              targetsystem  observedproperty  value
0   O=C(CCCCCCc1ccccc1)c1nc(-c2cccnc2)co1  truncated rat FAAH (rFAAH) (Rattus norvegicus, UniProt P97612)               pKi   7.74
1      O=C(O)c1coc(C(=O)CCCCCCc2ccccc2)n1  truncated rat FAAH (rFAAH) (Rattus norvegicus, UniProt P97612)               pKi   7.28
2           Cc1coc(C(=O)CCCCCCc2ccccc2)n1  truncated rat FAAH (rFAAH) (Rattus norvegicus, UniProt P97612)               pKi   6.28
3    O=C(CCCCCCc1ccccc1)c1nc(C(F)(F)F)co1  truncated rat FAAH (rFAAH) (Rattus norvegicus, UniProt P97612)               pKi   8.43
4   O=C(CCCCCCc1ccccc1)c1nc(-c2ccccc2)co1  truncated rat FAAH (rFAAH) (Rattus norvegicus, UniProt P97612)               pKi   7.19
5  CN(C)C(=O)c1coc(C(=O)CCCCCCc2ccccc2)n1  truncated rat FAAH (rFAAH) (Rattus norvegicus, UniProt P97612)               pKi   7.46
6   O=C(CCCCCCc1ccccc1)c1nc(-c2ccncc2)co1  truncated rat FAAH (rFAAH) (Rattus norvegicus, UniProt P97612)               pKi   8.80
7   O=C(CCCCCCc1ccccc1)c1nc(-c2ccccn2)co1  truncated rat FAAH (rFAAH) (Rattus norvegicus, UniProt P97612)               pKi   8.72

A = O=C(CCCCCCc1ccccc1)c1nc(I)co1
B = CNC(=O)c1coc(C(=O)CCCCCCc2ccccc2)n1
Data request: Could you tell me which of A and B has the lower pKi reading? // caller expects the label of the chosen entry
Data returned: A
(A: 8.19, B: 8.74)
